Assignment: determine reported residual activity for the given compounds.
Target: UniProt:Q9H2X6
Sequence (Q9H2X6 whole entry, looked up): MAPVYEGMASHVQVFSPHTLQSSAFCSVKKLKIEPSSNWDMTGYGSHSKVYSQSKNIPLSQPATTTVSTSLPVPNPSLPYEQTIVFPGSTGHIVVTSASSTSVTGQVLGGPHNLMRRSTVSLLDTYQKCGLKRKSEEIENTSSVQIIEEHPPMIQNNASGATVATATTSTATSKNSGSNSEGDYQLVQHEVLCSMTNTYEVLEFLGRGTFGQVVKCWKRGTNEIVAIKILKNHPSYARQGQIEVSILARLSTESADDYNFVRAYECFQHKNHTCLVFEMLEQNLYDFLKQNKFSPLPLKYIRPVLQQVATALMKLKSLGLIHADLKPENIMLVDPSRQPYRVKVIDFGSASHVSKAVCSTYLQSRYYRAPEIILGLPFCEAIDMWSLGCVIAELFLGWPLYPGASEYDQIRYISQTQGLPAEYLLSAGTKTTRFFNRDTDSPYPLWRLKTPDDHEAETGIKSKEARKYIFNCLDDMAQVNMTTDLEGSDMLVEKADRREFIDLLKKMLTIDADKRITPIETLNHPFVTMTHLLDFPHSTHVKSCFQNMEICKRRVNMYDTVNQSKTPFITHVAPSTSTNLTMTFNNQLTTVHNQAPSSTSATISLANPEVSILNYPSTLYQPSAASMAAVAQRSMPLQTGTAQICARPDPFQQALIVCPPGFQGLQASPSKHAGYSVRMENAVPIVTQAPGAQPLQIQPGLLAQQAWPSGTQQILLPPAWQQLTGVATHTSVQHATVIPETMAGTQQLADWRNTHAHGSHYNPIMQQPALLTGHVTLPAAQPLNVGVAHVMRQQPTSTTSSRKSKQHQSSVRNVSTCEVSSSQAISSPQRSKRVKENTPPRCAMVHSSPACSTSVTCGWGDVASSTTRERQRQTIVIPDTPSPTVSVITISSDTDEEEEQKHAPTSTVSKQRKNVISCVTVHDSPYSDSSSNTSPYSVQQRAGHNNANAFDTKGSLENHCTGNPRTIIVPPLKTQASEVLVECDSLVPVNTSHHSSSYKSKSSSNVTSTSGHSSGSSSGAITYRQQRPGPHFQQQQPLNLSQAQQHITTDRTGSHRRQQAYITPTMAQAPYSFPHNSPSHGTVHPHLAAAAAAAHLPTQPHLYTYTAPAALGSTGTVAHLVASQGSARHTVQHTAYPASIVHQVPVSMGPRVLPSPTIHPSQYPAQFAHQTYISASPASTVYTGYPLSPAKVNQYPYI
Assay: radiometric filter-binding kinase assay, Kinase HotSpot
Conditions: compound 0.5 µM; ATP 10 µM
Answers are plain numbers, in %.

# example entries with known answers
Oc1cccc(-c2nc(N3CCOCC3)c3oc4ncccc4c3n2)c1	102
Cc1ccc(Nc2nccc(N(C)c3ccc4c(C)n(C)nc4c3)n2)cc1S(N)(=O)=O	105
CNc1cc2c(Nc3cccc(Br)c3)ncnc2cn1	98.4
CCN(CC)CCNC(=O)c1c(C)[nH]c(/C=C2\C(=O)Nc3ccc(F)cc32)c1C	41.3
CCN(CC)CCNC(=O)c1c(C)[nH]c(/C=C2\C(=O)Nc3ccc(Cl)cc32)c1C	20

Provide the reported residual activity of each entry below, same order.
1. CC#CC(=O)Nc1cc2c(Nc3ccc(F)c(Cl)c3)ncnc2cn1
2. O=C(Nc1cccc(Nc2nccc(Nc3cccc(C(F)(F)F)c3)n2)c1)C1CC1

1. 101
2. 103

###

Biological target: RPS6KA3 KD1 KD2 (human)
Assay: radiometric filter-binding kinase assay, Kinase HotSpot
Conditions: compound 0.5 µM; ATP 10 µM
Assignment: determine reported residual activity for the given compounds.
Numbers only, in %.

# example entries with known answers
O=C1NC(=O)/C(=C/c2ccc3c(c2)OC(F)(F)O3)S1	103
CC#CC(=O)Nc1cc2c(Nc3ccc(F)c(Cl)c3)ncnc2cn1	97.5
CCN(CC)CCNC(=O)c1c(C)[nH]c(/C=C2\C(=O)Nc3ccc(F)cc32)c1C	35.5
O=C1Nc2ccc(Cl)cc2/C1=C/c1cc(Cl)c(O)c(Cl)c1	96
CO[C@H]1CC2CC[C@@H](C)[C@@](O)(O2)C(=O)C(=O)N2CCCC[C@H]2C(=O)OC([C@H](C)C[C@@H]2CC[C@@H](O)[C@H](OC)C2)CC(=O)[C@H](C)/C=C(\C)[C@@H](O)[C@@H](OC)C(=O)[C@H](C)C[C@H](C)/C=C/C=C/C=C/1C (stereo not given in full)	105

Provide the reported residual activity of each entry below, same order.
1. CCN(CC)CCNC(=O)c1c(C)[nH]c(/C=C2\C(=O)Nc3ccc(Cl)cc32)c1C
2. O=c1cc(N2CCOCC2)oc2c1ccc1ccccc12
3. COc1ccc(COc2ccc(Cc3cnc(N)nc3N)cc2OC)cc1
4. CCCC(=O)Oc1ccc2[nH]c(C(=O)c3cc4ccccc4[nH]3)cc2c1

[15.1, 103, 105, 97.5]

Provide the reported residual activity of each entry below, same order.
1. COc1cc2ncnc(Nc3cccc(Cl)c3)c2cc1OC
2. Nc1ncnc2c1c(-c1ccc(Oc3ccccc3)cc1)cn2C1CCCC1

[87.8, 96.9]

Provide the reported residual activity of each entry below, same order.
1. O=C1NC(=O)c2c1c1c3ccccc3n3c1c1c2c2ccccc2n1C1CCC3O1
2. CCC(=O)Nc1ccc2ncnc(Nc3cccc(Br)c3)c2c1
3. Oc1cccc(-c2nc(N3CCOCC3)c3oc4ncccc4c3n2)c1
4. c1ccc(-c2n[nH]c3c2oc2ccccc23)cc1
5. Nc1ccc2ncnc(NCCc3ccc(Oc4ccccc4)cc3)c2c1

1: 2.35; 2: 95; 3: 101; 4: 109; 5: 101

Provide the reported residual activity of each entry below, same order.
1. N#CC(C#N)=C(N)/C(C#N)=C/c1ccc(O)cc1
2. Cc1ccc(NC2=CC(=O)c3sc(C)nc3C2=O)cc1
3. Cc1ccc(Nc2nccc(N(C)c3ccc4c(C)n(C)nc4c3)n2)cc1S(N)(=O)=O
4. Cc1[nH]c(/C=C2\C(=O)Nc3ccc(S(=O)(=O)N(C)c4cccc(Cl)c4)cc32)c(C)c1C(=O)N1CCN(C)CC1

1. 94.6
2. 104
3. 99.1
4. 76.8
